Biological target: human Trk A kinase (Homo sapiens)
Construct: His
Sequence (P04629 442-796): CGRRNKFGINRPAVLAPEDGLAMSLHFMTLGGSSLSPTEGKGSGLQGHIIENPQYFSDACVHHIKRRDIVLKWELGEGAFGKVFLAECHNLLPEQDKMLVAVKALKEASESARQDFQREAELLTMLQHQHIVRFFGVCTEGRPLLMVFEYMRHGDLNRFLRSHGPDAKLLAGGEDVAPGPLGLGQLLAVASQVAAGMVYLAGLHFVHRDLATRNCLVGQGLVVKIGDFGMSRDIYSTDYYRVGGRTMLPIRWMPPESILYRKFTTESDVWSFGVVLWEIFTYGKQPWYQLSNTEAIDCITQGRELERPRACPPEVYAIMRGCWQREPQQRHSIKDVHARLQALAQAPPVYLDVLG
Assay: Trk A kinase assay (Alphascreen)
Conditions: intracellular domain of HIS-tagged human Trk A, 70 μM ATP, 20 minutes, room temperature, read-out: Trk inhibitory activity IC50
pIC50: −log10 of the molar value.
MEASURED_METRIC: pIC50

- MOLECULE: "C[C@@H](c1ccc(F)cc1)n1cnc2ccc(Nc3cc(C4CC4)[nH]n3)nc21 [Example 6]"
  pIC50: 7.31

A = CC(C)Oc1cc(Nc2ncc3ncn([C@@H](C)c4ccc(F)cc4)c3n2)n[nH]1 [Example 5]
B = Fc1ccc(Cn2cnc3cc(Cl)c(Nc4cc(C5CC5)[nH]n4)nc32)cc1 [Example 18]
Problem: Which is greater in pIC50, the first item A or the second item B ? Mark your answer with the label of the selected entry.
Solution: B
(B: 7.96, A: 7.20)
